System: NOMO1
Test: cell viability relative to DMSO control; higher = less cytotoxic
Conditions: RPMI 5 mM glucose + 10% FBS; 48 h; 0.0632 µM
recorded-endpoint: cell viability (%)
Enter your answer as a number in %; do not include the unit.

molecule	recorded-endpoint	recorded-result
C[C@H]1C[C@H]2[C@@H]3CC[C@](O)(C(=O)CO)[C@@]3(C)C[C@H](O)[C@@H]2[C@@]\4(C)/C=C\C(=O)\C=C14	cell viability	104
CC(C)(F)C[C@H](N[C@@H](c1ccc(-c2ccc([S+](C)(=O)[O-])cc2)cc1)C(F)(F)F)C(=O)NC1(C#N)CC1	cell viability	119
Cc1cn([C@H]2C=C[C@@H](CO)O2)c(=O)[nH]c1=O	cell viability	98.7

Turning to the following molecule.
Notebook: `COc1ccc(C(=O)c2c(C)n(CCN3CCOCC3)c3ccccc23)cc1` , cell viability read as 85.4
